Target: T1, monomeric recombinant human Notch3 extracellular domain (containing EGF like domains 1-11) fusion protein (human, UniProt Q9UM47 40-467)
T1 construct: domain: EGF like domains 1-11; also called monomeric rhNotch3
T1 sequence (looked up): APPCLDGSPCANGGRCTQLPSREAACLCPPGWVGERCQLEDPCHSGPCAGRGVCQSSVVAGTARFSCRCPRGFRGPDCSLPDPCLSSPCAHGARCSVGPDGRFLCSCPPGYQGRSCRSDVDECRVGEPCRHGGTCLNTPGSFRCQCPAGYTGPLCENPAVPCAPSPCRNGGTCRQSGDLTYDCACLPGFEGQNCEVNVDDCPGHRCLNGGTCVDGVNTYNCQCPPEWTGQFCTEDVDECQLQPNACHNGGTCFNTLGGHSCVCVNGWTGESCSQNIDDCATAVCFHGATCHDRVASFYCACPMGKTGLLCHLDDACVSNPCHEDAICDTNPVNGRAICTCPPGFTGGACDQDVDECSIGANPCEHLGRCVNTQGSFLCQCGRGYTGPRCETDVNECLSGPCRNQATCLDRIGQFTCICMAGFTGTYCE
Experiment: SPR BIAcore T100, antibody captured by anti-human IgG Fc, monomeric rhNotch3 analyte, 37 C
# log10(kon) listing for each entry below
Recall that a logarithmic scale is used here: each number is log10 of kon in M⁻¹ s⁻¹.

binder: Hu4F11-76 (antibody, human IgG1, kappa, V domains shown, Humanized, human IgG1 kappa; Hv3-23 S31H T62S heavy + Kv2D-29 N28Y kappa) VH: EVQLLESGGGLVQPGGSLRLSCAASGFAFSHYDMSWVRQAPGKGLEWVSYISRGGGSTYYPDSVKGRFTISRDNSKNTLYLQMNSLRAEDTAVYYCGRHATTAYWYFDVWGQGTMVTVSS VL: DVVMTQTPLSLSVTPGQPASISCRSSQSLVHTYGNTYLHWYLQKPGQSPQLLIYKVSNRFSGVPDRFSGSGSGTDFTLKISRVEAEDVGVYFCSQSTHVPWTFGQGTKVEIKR
log10(kon): 6.23

binder: Hu4F11-80 (antibody, human IgG1, kappa, V domains shown, Humanized, human IgG1 kappa; Hv3-23 S31H T62S heavy + Kv2D-29 N28Q kappa) VH: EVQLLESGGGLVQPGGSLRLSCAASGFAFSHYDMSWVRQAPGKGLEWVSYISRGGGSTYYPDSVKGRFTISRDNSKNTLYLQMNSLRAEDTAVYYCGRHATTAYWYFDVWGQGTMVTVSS VL: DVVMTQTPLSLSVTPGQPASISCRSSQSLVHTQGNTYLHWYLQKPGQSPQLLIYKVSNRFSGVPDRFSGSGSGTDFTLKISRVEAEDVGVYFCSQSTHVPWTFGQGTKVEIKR
log10(kon): 6.04

binder: Hu4F11-72 (antibody, human IgG1, kappa, V domains shown, Humanized, human IgG1 kappa; Hv3-23 S31H T62S heavy + Kv2D-29 N28H kappa) VH: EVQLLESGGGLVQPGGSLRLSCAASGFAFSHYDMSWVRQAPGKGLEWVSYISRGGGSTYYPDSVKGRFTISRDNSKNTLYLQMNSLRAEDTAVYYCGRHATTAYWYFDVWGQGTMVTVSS VL: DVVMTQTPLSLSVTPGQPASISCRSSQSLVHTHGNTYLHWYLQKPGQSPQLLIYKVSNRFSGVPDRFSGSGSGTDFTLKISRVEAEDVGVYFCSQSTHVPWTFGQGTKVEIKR
log10(kon): 5.26

binder: Hu4F11-77 (antibody, human IgG1, kappa, V domains shown, Humanized, human IgG1 kappa; Hv3-23 A28T S31N T62S heavy + Kv2D-29 N28Q kappa) VH: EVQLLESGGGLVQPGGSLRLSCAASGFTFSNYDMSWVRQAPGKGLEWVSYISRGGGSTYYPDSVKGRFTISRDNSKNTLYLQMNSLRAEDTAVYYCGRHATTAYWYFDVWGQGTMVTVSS VL: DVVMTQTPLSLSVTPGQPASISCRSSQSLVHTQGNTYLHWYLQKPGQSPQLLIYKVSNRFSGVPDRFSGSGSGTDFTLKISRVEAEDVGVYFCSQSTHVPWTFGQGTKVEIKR
log10(kon): 6.34

Next:
The binder listed as Hu4F11-69 (antibody, human IgG1, kappa, V domains shown, Humanized, human IgG1 kappa; Hv3-23 A28T S31N T62S heavy + Kv2D-29 N28H kappa) VH: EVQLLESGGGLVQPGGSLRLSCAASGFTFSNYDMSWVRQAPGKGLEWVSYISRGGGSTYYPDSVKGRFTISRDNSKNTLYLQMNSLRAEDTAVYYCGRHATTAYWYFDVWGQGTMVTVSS VL: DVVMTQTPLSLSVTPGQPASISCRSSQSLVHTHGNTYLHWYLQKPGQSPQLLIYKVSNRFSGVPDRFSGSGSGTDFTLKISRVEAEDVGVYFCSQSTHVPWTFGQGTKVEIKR shows log10(kon) equal to 6.11
